Provenance of the data: the nanobody polyreactivity screen of Harvey et al. (2022)

# assay.method.text: yeast display, Sf9 membrane polyspecificity reagent, FACS + sequencing; frameworks hold sequencing errors
measured.parameter: polyreactivity (PSR sort gate)

{"columns": ["construct.sequence", "measured.parameter", "result"],
 "data": [
  ["QVQLVESGGGIVQAGGSLRLSCAASGRTLDKYTMGWYRQAPGKERELVASITSGGSTNYADSVKGRFTISRDNAKNTVYLQMNSLKPEDTAVYYCNKRRRVSKLGQGYDYWGQGTQVTVSS", "polyreactivity (PSR sort gate)", "low polyreactivity"],
  ["QVQLVESGGGLVQAGGSLRLSCAASGRTFSYYAKGWYRQAPGKESELVSAIRVSGGITYYADSVKGRFTISRDNAKNTVYLQMNTLKPEDTAVYYCNAGVDFIGGRYLTYVYWGQGTQVTVSW", "polyreactivity (PSR sort gate)", "low polyreactivity"],
  ["QVQLVESGGGLVQAGGSLRLSCAASGSTFALYPMGCYRQAPGKERELVAGITIDGSTNYADSVKGRFTISRDNAKNTVYLQMNSLKPEDTAVYYCNADSYKYPLLKYRSDYWGQGTQVTVSS", "polyreactivity (PSR sort gate)", "low polyreactivity"]
]}

---

# assay.method.text: yeast display, Sf9 membrane polyspecificity reagent, FACS + sequencing; frameworks hold sequencing errors
measured.parameter: polyreactivity (PSR sort gate)

{"columns": ["construct.sequence", "result"],
 "data": [
  ["QVQLVESGGGLLQAGGSLRLSCAASGGTFERNAMGWYRQAPGKERELVAAISISGGRTYYADSVKGRFTISRDNAKNTVYLQMKSLKPEDTAVYFCAAGVGSRIKQVGNDYWGQGTQVTVSS", "high polyreactivity"],
  ["QVQLVESWGGLVQAGGSLRLSCAASGRIFALYAMGWYRKAPGKERELVASINSRVGSTNYADSVKGRFTISRDNAKNTVYLQMNSLKPEDTAVYYCNARFVYAYQRYYWGQGTQVTVSS", "high polyreactivity"],
  ["QVQLVESGGGLVQAGGSLRLSCAASGRIFYRYTMGWYRQAPGKERELVAAITRGGNTYYADSVKGRFTISRDNAKNTVYLQMNSLKPEDTAVYYCAKKAPSDRNNYWGQGTQVTVSS", "high polyreactivity"]
]}

---

# assay.method.text: yeast display, Sf9 membrane polyspecificity reagent, FACS + sequencing; frameworks hold sequencing errors
measured.parameter: polyreactivity (PSR sort gate)

Solved entries (count: 4):
{"columns": ["construct.sequence", "polyreactivity (PSR sort gate)"],
 "data": [
  ["QVQLEESGGGLVQAGGSLRISCAASGRTLRSYAMGWYRQAPGKERELVAAISWNGGDTYADSVKGRFTISRDNAKNTVYLQMNSLKPEDTAVYYCAASRWFSRYWYGIDKYNYWGQGTQVTVSS", "high polyreactivity"],
  ["QVQLVESGGGLVQAGGSLRLSCAASGSTFVYYAMGWYRQAPGKERELVATITSGGSTKYADSVKGRFTISRDNAKNTVYLQMNSLKPEDTAVYYCAAAYRVRGRTYDSWGQGTQVTVSS", "high polyreactivity"],
  ["QVQLVESGGGLVQAGGSLRLSCAASGSIFTWYAMGWYRQAPGKERELVAAITRGGSTYADSVKGRFTISRDNAKNTVYLQMNSLKPEDTAVYYCNAVYGVYDFNYWGHGTQVTVSS", "low polyreactivity"],
  ["QVQLVESGGGLVQAGGSLRLSCAASGRIFGVNAMGWYRPAPGKERELVAHIRSSGASTYYADSVKGRFTISRDNAKNTVYLQMNSLKPEDTAVYYCARDYFVDGPGYDYWGQGTQVTVSS", "low polyreactivity"]
]}

Need polyreactivity (PSR sort gate) of "QVQLVESGGGLVQAGGSLRLSCAASGRTLSHYAMGWYRQAPGKERELVAAITRSGGSTYYADSVKGRFTISRDNAKNTVYLQMNSLKPEDTAVYYCNKTLYTTYDYWGQGTQVTVSS" , thanks.
low polyreactivity

Need polyreactivity (PSR sort gate) of "QVQLVESGGGLVQAGGSLRLSCAASGSTIEDYAMGWYRQAPGKERELVAAISWRSDITYYADSVKGRFTISRDNAKNTVYLQMNSLKPEDTAVYYCAADNSYHWLDREFDYEFDYWGQGTQVTVSS" , thanks.
high polyreactivity
